- TESTED_TARGET: S. pneumoniae Topoisomerase IV ATPase (ParE) (Streptococcus pneumoniae serotype 4, UniProt Q59961)
- Sequence (Q59961 whole entry): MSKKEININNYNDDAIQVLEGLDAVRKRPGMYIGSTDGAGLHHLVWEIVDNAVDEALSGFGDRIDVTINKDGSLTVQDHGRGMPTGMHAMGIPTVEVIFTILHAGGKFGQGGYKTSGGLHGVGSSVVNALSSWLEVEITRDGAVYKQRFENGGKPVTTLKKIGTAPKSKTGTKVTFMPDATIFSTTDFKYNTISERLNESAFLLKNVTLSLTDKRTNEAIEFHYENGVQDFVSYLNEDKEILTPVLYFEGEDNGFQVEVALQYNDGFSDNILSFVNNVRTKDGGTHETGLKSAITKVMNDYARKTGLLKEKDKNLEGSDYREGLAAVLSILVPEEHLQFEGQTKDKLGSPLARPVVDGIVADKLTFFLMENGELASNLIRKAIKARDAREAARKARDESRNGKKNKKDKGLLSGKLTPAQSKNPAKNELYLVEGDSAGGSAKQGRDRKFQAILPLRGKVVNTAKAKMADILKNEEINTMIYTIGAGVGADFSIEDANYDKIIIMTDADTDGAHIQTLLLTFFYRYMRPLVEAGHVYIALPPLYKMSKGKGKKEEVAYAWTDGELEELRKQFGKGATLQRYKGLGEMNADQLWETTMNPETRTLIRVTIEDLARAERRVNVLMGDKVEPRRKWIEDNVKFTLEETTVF
- TEST_NAME: S. pneumoniae Topoisomerase IV ATPase inhibition
- Assay type: biochemical
- ASSAY_CONDITIONS: values marked * are an average of two or more data points, read-out: % Inh (13 μM) of S. pneumoniae Topoisomerase IV ATPase
MEASURE_NAME: inhibition at 13 µM (%)

• COc1ccc(-c2cnc(Nc3ccc(F)c(Cl)c3)nc2-n2ccc(C(F)(F)F)n2)cc1C(N)=O = 21
• O=C(O)c1cccc(-c2cnc(Nc3ccc(F)c(Cl)c3)nc2N2CCOCC2)c1 = 84
• O=C(O)c1cc(-c2cnc(Nc3ccc(F)c(Cl)c3)nc2-n2ccc(C(F)(F)F)n2)cnc1OCCc1ccncc1 = 100
• COc1cc(Nc2ncc(-c3cncc(C(=O)O)c3)c(-n3nc(C)cc3C(F)F)n2)cc(OC)c1 = 100
• COCCCNc1nc(Nc2ccc(F)c(Cl)c2)ncc1-c1nc(C(=O)OC)cs1 = 14.5
• COc1cc(Nc2ncc(-c3cncc(C(=O)NCCS(C)(=O)=O)c3)c(-n3nc(C(F)(F)F)cc3C)n2)cc(OC)c1 = 100
• COC(=O)c1cc2cc(-c3cnc(Nc4ccc(F)c(Cl)c4)nc3NCCCN(C)C)ccc2s1 = 85.3

The origin of these recorded values is patent US20100137313A1.
